Values from patent US20050256058A1

target: Caspase-8 (UniProt Q14790); assay: cell-based or functional assay
Sequence (Q14790 217-479 limits assumed): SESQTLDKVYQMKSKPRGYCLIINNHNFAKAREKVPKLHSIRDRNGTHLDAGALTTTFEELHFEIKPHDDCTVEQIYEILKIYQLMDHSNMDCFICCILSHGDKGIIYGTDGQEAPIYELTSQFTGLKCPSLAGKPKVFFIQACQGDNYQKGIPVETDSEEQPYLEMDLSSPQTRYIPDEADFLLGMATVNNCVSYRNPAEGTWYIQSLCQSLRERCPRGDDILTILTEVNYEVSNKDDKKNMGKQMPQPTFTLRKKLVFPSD
Numbered stars: 1 amine (or outer) side, 2 acyl side, 3 side chain; on linkers, the order of the positions; unused ones are H or OH. Square brackets hold non-standard residues; d marks the D form. * marks the point of attachment. CH═CH‑CON(CH3)CH2CH2Ph = CN(CCc1ccccc1)C(=O)/C=C/*; AAsp = aza-Asp, O=C(N(CC(=O)[*:3])N[*:1])[*:2]; CH═CH‑CON(CH3)CH2Ph = CN(Cc1ccccc1)C(=O)/C=C/*; Cbz = O=C(OCc1ccccc1)*
READOUT_TYPE: k2 (M⁻¹ s⁻¹)

INSERT INTO results (binder, reading) VALUES
  ('Cbz-IET[AAsp]-{CH═CH‑CON(CH3)CH2CH2Ph} (SMILES CC[C@H](C)[C@H](NC(=O)OCc1ccccc1)C(=O)N[C@@H](CCC(=O)O)C(=O)N[C@H](C(=O)NN(CC(=O)O)C(=O)/C=C/C(=O)N(C)CCc1ccccc1)[C@@H](C)O) [Cbz-Ile-Glu-Thr-AAsp-CH═CH-CON(CH3)CH2CH2Ph]', 60500),
  ('Cbz-IET[AAsp]-{CH═CH‑CON(CH3)CH2Ph} (SMILES CC[C@H](C)[C@H](NC(=O)OCc1ccccc1)C(=O)N[C@@H](CCC(=O)O)C(=O)N[C@H](C(=O)NN(CC(=O)O)C(=O)/C=C/C(=O)N(C)Cc1ccccc1)[C@@H](C)O) [Cbz-Ile-Glu-Thr-AAsp-CH═CH-CON(CH3)CH2Ph]', 59700),
  ('Cbz-IET[AAsp]-{CH═CH‑CONHCH2Ph} [Cbz-Ile-Glu-Thr-AAsp-CH═CH-CONHCH2Ph]', 61300);
